Recorded measurements of viability at 28.5 h, 10 µM, one per entry
assay: in vitro; conditions: human, hela cells, % viability
reportedMetric: viability at 28.5 h, 10 µM

In [3]: df
Out[3]:
                                    compound  testvalue
 0  Cc1cccc2c(C(=O)OCC(=O)c3ccc([N+](=O)[O-])cc3)cc(-c3ccc(Cl)cc3)nc12      94.5%
 1  CCOC(=O)c1sc(NS(=O)(=O)c2cccc(Cl)c2C)nc1-c1ccccc1      92.7%
 2      Cc1ccc(CS(=O)(=O)N(CCO)C2CCC2)c(F)c1      82.2%
 3  O=C(O)c1ccc(NC(=O)c2cccc(-n3cnnc3)c2)cc1       104%
 4  C[C@@H]1CN2CCCC2CN1Cc1ccc2ccccc2n1 (stereo partly drawn)       101%
 5    Cc1cc(CN(C)Cc2c(C)nc3c(C)cccn23)n[nH]1      99.1%
 6                 CCCCc1ccc(Nc2csc(N)n2)cc1      82.5%
 7  Cc1ccc(C2CC(c3cccnc3)Nc3nnnn32)cc1 (stereo not drawn)      97.9%
 8   O=C(NCCc1c[nH]cn1)NC12CC3CC(CC(C3)C1)C2      86.2%
 9  CC(=O)Nc1ccc(OCC(O)Cn2nc(-c3ccco3)oc2=O)cc1 (stereo not drawn)      97.9%
10  CCOC(=O)c1noc2nc(C)n(Cc3nc(-c4ccccc4)oc3C)c(=O)c12      89.6%
11  Cc1ccc(CN(CC2CCOC2)C2CC(C)(C)NC(C)(C)C2)o1 (stereo not drawn)      92.6%
12  Cc1cccc(CCNC(=O)c2cccn(CC(=O)N(C)C3CCCCC3)c2=O)c1       104%
13    O=C1CCCN1CCCNC(=O)N1CCN(CCc2ccccc2)CC1        91%
14  CCCCSc1nnc(-c2cc3c(C(F)(F)F)nn(C)c3s2)n1C      97.5%
15  Cn1c(CCNC(=O)c2cccs2)nc2cc([N+](=O)[O-])ccc21        83%
16  CC(Sc1ccc(Br)c2cccc(C(=O)O)c12)C(=O)O (stereo not drawn)      97.4%
17                 c1csc(Sc2nccnc2N2CCCC2)n1       107%
18  Cc1nc(C)n(CC2CCCN2Cc2cn3ccccc3c2C#N)n1 (stereo not drawn)        91%
19    c1cncc(CN2CCN(Cc3c[nH]c4ccccc34)CC2)c1      92.2%
20  Cc1ccc(/C(N)=N/OC(=O)CN(C)S(=O)(=O)c2ccc3ccccc3c2)cc1       104%
21  Cc1ccc(C(=O)C(C)OC(=O)c2cc(-c3ccccc3)nc3ccccc23)cc1 (stereo not drawn)      99.8%
22  COc1cccc(-c2nc(-c3ccc4[nH]c(=O)[nH]c4c3)cs2)c1OC       108%
23  c1ccc(C(NCc2cnc(-c3ncccn3)s2)C2CCC2)cc1 (stereo not drawn)      81.5%
24  COC(=O)c1cccc(OCC(O)Cn2ccnc2)c1 (stereo not drawn)       102%
25  COc1ccc(C(CC(=O)c2ccc(C)cc2)Nc2ccc([N+](=O)[O-])cc2)cc1 (stereo not drawn)      92.2%
26   O=C(O)c1nccnc1-c1ccc(Cn2ccc3ccccc32)cc1       100%
27  COc1cccc(/C=N/N2C(=O)c3ccc([N+](=O)[O-])cc3NC2c2cccc(OC)c2O)c1O (stereo not drawn)      91.3%
28       COc1ccc(C(C)C)cc1-c1nccnc1NCc1ccco1        98%
29         CCC(C)(C)C(=O)Nc1ccc(Br)c2ccccc12      79.7%
30  Cc1nc(C)n(CC(=O)N[C@H]2C3CCCCC3[C@@H]2c2ccccc2)n1 (stereo partly drawn)      94.7%
31  Cc1ccc(C)c(N2CCN(CCCNC(=S)Nc3ccc(Cl)cc3Cl)CC2)c1      99.6%
32                 COCCCNC(=O)COc1cc(C)ccc1C      88.4%
33  COc1ccc2oc(C(=O)NCCN3CCOCC3)c(C)c2c1OC [CBK269913C]      86.8%
34  CS(=O)(=O)N1CC2(CCN(CC(=O)c3ccsc3)CC2)c2ccccc21 [CBK144595T]        87%
35        C=CCn1c(COc2cccc3ccc(C)nc23)nnc1SC      94.2%
36           O=C(O)CCCCn1c2c(c3ccccc31)CCCC2      98.9%
37         O=C(Nc1nc2c(s1)CCc1ccccc1-2)C1CC1      85.3%
38  CC(C)c1cc(C(=O)N[C@@H]2CCOC[C@H]2Oc2ccc(CO)cc2)on1       101%

----------
test system: CTL2-GFP (C. trachomatis L2/434/Bu, GFP-expressing); construct: L2/434/Bu, GFP-expressing; test: microbe, parasite or virus in culture; design: Intracellular C. trachomatis growth in HeLa cells, bulk GFP fluorescence relative to DMSO; conditions: Chlamydia trachomatis, HeLa, 28.5 h; bulk GFP, mean of 2; read-out: % of control remaining
reportedMetric: activity at 10 µM (%)

>>> print(df.to_string())
                                   molecule  unitinfo  testvalue
0  COc1cc(/C=N/c2cccc3c(/N=C/c4ccc(O)c(OC)c4)cccc23)ccc1O         %         44
1  Cc1cc(C(=O)Nc2cccc(S(=O)(=O)N3CCOCC3)c2)sc1-c1ccccc1         %       77.7
2      COc1ccc2cc3c(nc2c1)OC(=O)N(CC1CC1)C3         %      0.603
3  COc1cc(CN2CCNCC2)c2ccn(S(=O)(=O)c3cccc(Cl)c3C)c2c1 [CBK144484T]         %       57.5
4           Oc1ccc(Cn2cnc3ccccc32)c2cccnc12         %       19.3

----------
Recorded measurements of viability at 28.5 h, 10 µM, one per entry
assay: in vitro; details: human, hela cells, % viability
reportedMetric: viability at 28.5 h, 10 µM (%)

In [3]: df
Out[3]:
                                   molecule  testvalue
0  CC(C)c1ccc(C(C)NC(=O)Cn2cccc(C(=O)Nc3ccc(F)cc3)c2=O)cc1 (stereo not drawn) [CBK286043]       89.3
1  COCCc1nc(C2CCC2)n(Cc2ccccc2C)n1 [CBK307238]       91.8
2  Cc1cc(C[C@@H]2COC[C@H]2NCC(C)c2ccccc2)on1 (stereo partly drawn) [CBK285145]       88.5
3  CCSc1nn(CC)c2oc3c(c2c1=S)CC(C)(C)OC3 [CBK021960]        105
4  CCc1nc2ccc(C(=O)NC3CCN(C)CC3)cn2c1N(C)C=O [CBK146594]        108
5  COc1ccccc1-c1cnc(N)c(NC2CCOCC2)n1 [CBK063853]        104
6  COc1ccccc1CC(=O)N1CCC(Cc2ccc(-c3ccccc3)cc2)(C(N)=O)CC1 [CBK285777]       95.4
7  CCC(CC)Oc1ccc(C2(C)NC(=O)NC2=O)cc1 (stereo not drawn) [CBK288409]       96.4
8  COc1ccc(C)cc1S(=O)(=O)Nc1cc(NCCCN2CCOCC2)c2occc2c1 [CBK067837C]        105

----------
Recorded measurements of viability at 28.5 h, 10 µM, one per entry
experiment: in vitro; settings: human, hela cells, % viability
reportedMetric: viability at 28.5 h, 10 µM (%)

>>> df
                                    compound  testvalue
 0  Cc1cccc(-c2ccc3c(c2)C(=O)N2CC[C@H](NC(=O)c4cnccn4)[C@H]2C(=O)N3)c1C       87.2
 1  Cc1ccccc1NC1=NC(=O)C(CC(C)C)O1 (stereo not shown)        116
 2  CNC(=O)CN1C[C@H](NC(=O)c2cccc3c2NCCC3)[C@@H](C(C)C)C1       80.6
 3  Cc1cn(CC(=O)N2CCC3(CCN(C(=O)Cc4c[nH]c5ccccc45)C3)C2)c(=O)[nH]c1=O (stereo not shown)        101
 4  O=S(=O)(N1CCOCC1)N1CCN(CC(O)COc2ccc(-c3ccccc3)cc2)CC1 (stereo not shown)        106
 5  COc1cc(NC(=O)CS(=O)(=O)c2ccccc2)c(OC)cc1Cl       86.7
 6  COc1ccc(C(=O)CN2CCC3(CC2)CC(=O)c2cc(Br)ccc2O3)cc1        114
 7  CCn1c(C)nc2cc(C(=O)N3N=CCC3(O)C(F)(F)F)ccc21 (stereo not shown)        105
 8  CC(=O)c1cccc(NC(=O)Cn2ncc(N3CCCC3)c(Cl)c2=O)c1       89.5
 9  COc1ccc(C(=O)CSc2nnc(C)[nH]2)cc1[N+](=O)[O-]       95.5
10             CN(Cc1ccccc1)c1nccnc1-c1ccsc1         91
11      COc1cccc(OCC(=O)O/N=C(\N)c2ccncc2)c1       91.6
12             CC(C)CNc1nccnc1-c1cccc(C=O)c1        100
13  Cc1ccnn1CCC(=O)N1CCC(c2cc3cccnc3[nH]2)CC1       95.2
14  COc1cccc(Cc2c(C)nc3c(C(=O)NCC4COc5ccccc5O4)cnn3c2C)c1 (stereo not shown)        111
15  O=C1COc2ccccc2CCCC[C@@H]2CN(C(=O)CN3C(=O)CNC3=O)CC[C@H]2N1       92.7
16  COc1ccc(Cl)cc1S(=O)(=O)NC(C)C(=O)O (stereo not shown)        106
17     Cn1ccc(C(=O)NC2CCN(c3ncccn3)CC2)cc1=O       85.2
18  CC(=O)Nc1ccc(CCOc2nccnc2/C=C/c2ccccc2)cc1       94.1
